Assay: Thermal (heat/hydrolytic) stability, 90° C., 3 hours, transmittance
Assay type: physicochemical
Details: appearance symbol
value_type: Heat stability (90° C., 3 hours), appearance

>>> result("CCCCCCCCCCCCc1ccc(S(=O)(=O)O)cc1.CCCCCCCCCCCCc1ccc(S(=O)(=O)O)cc1.CN(C)CCCNCCCN(C)C.Cl")
"op."
>>> result("CCCCCCCCCCCCc1ccc(S(=O)(=O)O)cc1.CCCCCCCCCCCCc1ccc(S(=O)(=O)O)cc1.NCCCCCCN")
"m."
>>> result("CCCCCCCCCCCCc1ccc(S(=O)(=O)O)cc1.CCCCCCCCCCCCc1ccc(S(=O)(=O)O)cc1.NCCCOCCCCOCCCN")
"op."
>>> result("CCCCCCCCCCCCc1ccc(S(=O)(=O)O)cc1.CCCCCCCCCCCCc1ccc(S(=O)(=O)O)cc1.NCCCCN")
"b."

# credit: patent US11634624B2
